# STUDY_SYSTEM: EGFR tyrosine kinase (Homo sapiens, UniProt P00533)
# Construct: Recombinant intracellular fragments of EGFR, erbB2 and erbB4; made in house; host or cells: baculovirus/Sf21 insect cells (cleared lysate used)
# Sequence (P00533 669-1210 limits assumed): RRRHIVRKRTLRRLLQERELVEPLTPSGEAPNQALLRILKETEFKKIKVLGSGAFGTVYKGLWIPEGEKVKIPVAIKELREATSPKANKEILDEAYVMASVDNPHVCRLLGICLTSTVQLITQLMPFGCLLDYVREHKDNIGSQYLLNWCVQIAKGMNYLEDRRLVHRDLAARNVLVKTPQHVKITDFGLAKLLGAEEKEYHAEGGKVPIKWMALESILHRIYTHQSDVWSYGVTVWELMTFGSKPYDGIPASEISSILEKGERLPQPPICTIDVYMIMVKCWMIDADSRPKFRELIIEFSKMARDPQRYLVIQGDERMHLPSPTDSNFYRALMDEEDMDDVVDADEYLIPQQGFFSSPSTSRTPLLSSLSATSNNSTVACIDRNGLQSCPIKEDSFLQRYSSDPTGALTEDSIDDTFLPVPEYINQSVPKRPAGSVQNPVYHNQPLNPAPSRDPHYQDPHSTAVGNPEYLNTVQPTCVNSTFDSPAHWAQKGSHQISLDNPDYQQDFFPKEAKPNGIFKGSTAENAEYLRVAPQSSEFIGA
# ASSAY_NAME: Protein tyrosine kinase phosphorylation assay, Test (a)
# Assay type: biochemical
# MEASUREMENT_CONTEXT: ATP at Km concentration; read-out: IC50 (nM) Test (a) (Inhibition of EGFR tyrosine kinase protein phosphorylation)
EXPERIMENTAL_READOUT: IC50 (nM)

Below, each entry is followed by its recorded IC50 result.
COMPOUND	RESULT_UNIT	IC50
COCCC(=O)N1CCC(Oc2cc3ncnc(Nc4cccc(Cl)c4F)c3cc2OC)CC1 [4[3]]	nM	65
COCCOCC(=O)N1CCC(Oc2cc3ncnc(Nc4cccc(Cl)c4F)c3cc2OC)CC1	nM	76
COCC(=O)N1CCC(Oc2cc3ncnc(Nc4cccc(Cl)c4F)c3cc2OC)CC1	nM	41

[A] COc1cc2c(Nc3cccc(Cl)c3F)ncnc2cc1OC1CCN(C(=O)CCO)CC1 [4[4]]
[B] COc1cc2c(Nc3cccc(Cl)c3F)ncnc2cc1OC1CCN(C(=O)CO)CC1 [4[1]]
Exam item: Would you mind telling me which has the lower recorded IC50 between A and B ? I would appreciate it if you answered with the label of your choice.
Marked response: B

----------
Overview of reported melting point across a group of compounds:

Below, each entry is followed by its recorded melting point result.
COMPOUND	melting point
COc1cc2c(Nc3cccc(Cl)c3F)ncnc2cc1OC1CCN(C(=O)[C@@H](C)O)CC1 [Example 9]	189 to 189.5 °C
COc1cc2c(Nc3cccc(Cl)c3F)ncnc2cc1O[C@H]1CCCN(C(=O)CN2CCN(C)CC2)C1 [Example 7]	120 to 121 °C
COc1cc2c(Nc3cccc(Cl)c3F)ncnc2cc1OC1CCN(C(=O)[C@H](C)O)CC1 [Example 4[5]]	107 to 111 °C

Exam item: Supply reported melting point belonging to this compound: COCCOCC(=O)N1CCC(Oc2cc3ncnc(Nc4cccc(Cl)c4F)c3cc2OC)CC1 [Example 2]
Marked response: 110 to 111 °C
